Species on record: Rattus norvegicus
assay-procedure: DrugMatrix - Regimen: Daily Repeat
Assay type: toxicity, organism-based, Sprague-Dawley
Parameters: regimen Daily Repeat, gender Male, age 6-8 weeks
setup-conditions: in vivo, po, 0 mg/kg, 72 h, tissue Plasma, route oral GAVAGE, dose level Control, time 3 day, vehicle .5 % CMC
# CHOLESTEROL annotations
Output spec: scalar in mg/dL, unitless text.

The following molecules have reported results that may help.
CN1C(C(=O)Nc2ccccn2)=C(O)c2ccccc2S1(=O)=O | 76.5
O=C1CCc2cc(OCCCCc3nnnn3C3CCCCC3)ccc2N1 | 71
C=C1CC[C@H](O)C/C1=C/C=C1\CCC[C@]2(C)[C@@H]([C@H](C)/C=C/[C@H](C)C(C)C)CC[C@@H]12 | 78

Please find the next molecule below.
CHOLESTEROL in this record for CC(C)[C@H](N)C(=O)OCCOCn1cnc2c(=O)[nH]c(N)nc21 : 66.83

Numbers sourced from ChEMBL document CHEMBL3885881.
